# Tested on: sterol synthesis (rat liver homogenate)
# ASSAY: CSI (Cholesterol Synthesis Inhibition) screen
# Assay type: biochemical
# CONDITION_INFO: 14C-acetate incorporation into nonsaponifiable lipid, one-hour period
Structures can show the parent of a compound that is named as a salt.
RESULT_TYPE: IC50

Checklist item: IC50 tested on sterol synthesis (rat liver homogenate), entry CN(C)c1nc2ccccc2c(-c2ccc(F)cc2)c1/C=C/[C@@H](O)C[C@@H](O)CC(=O)O (relative stereo) [monosodium salt] , value? 47 nM

Entry source: patent US4923861A
